# run.description: Blocking experiments: inhibition of radiotracer accumulation in the rat by coadministered compound
# Format: in vivo, rat (male Wistar)
# details: rat, lung, iv, rat, iv, 60 min, + (-)-7 HCl 0.53 mg/kg; read-out: radioactivity in lung
measured.attribute: tissue uptake at 1 h (%ID/g)
Could you give me the number in %ID/g? Just the number is fine.

Return tissue uptake at 1 h (reported value) for this compound: OC(Cc1ccc([125I])cc1)CN1CCC(c2ccccc2)CC1 (single isomer, unassigned; (-)) [(-)-4-[^125 l]HIPP]
1.04

====

# run.description: Tissue distribution (biodistribution) of radioiodinated compound in the rat
# details: rat, blood, iv, radioactivity in blood, 60 min
// reported tissue uptake at 1 h for each item listed
Numbers only; they are read as %ID/g.

Recorded results for 2 molecules are shown here.
molecule	tissue uptake at 1 h / %ID/g
OC(Cc1ccc([125I])cc1)CN1CCC(c2ccccc2)CC1 (single isomer, unassigned; (+)) [(+)-4-[^125 l]HIPP]	0.03
OC(Cc1cccc([125I])c1)CN1CCC(c2ccccc2)CC1 (single isomer, unassigned; (+)) [(+)-[^125 l]12]	0.09

Please find the next molecule below.
Identify measured tissue uptake at 1 h corresponding to OC(CN1CCC(c2ccccc2)CC1)c1ccc([125I])cc1 (single isomer, unassigned; (+)) [(+)-[^125 l]13]
0.03

====

# System: vesamicol receptor
# run.description: Blocking experiments: inhibition of radiotracer accumulation in the rat by coadministered compound
# Type: in vivo, rat (male Wistar)
# details: rat, iv, 60 min, + (dl)-vesamicol HCl 0.3 (Table 3) or 0.31 mg/kg; 60 min
Quick rule for you: Heart: Blood Ratio at 4 or higher means Yes, lower means No.

Illustrative cases are given below, each with its answer.
compound	assayed.target	classification
OC(Cc1cccc([125I])c1)CN1CCC(c2ccccc2)CC1 (single isomer, unassigned; (-)) [(-)-[^125 l]12]	vesamicol receptor	No
OC(CN1CCC(c2ccccc2)CC1)c1ccc([125I])cc1 (single isomer, unassigned; (+)) [(+)-[^125 l]13]	vesamicol receptor	No
OC(Cc1cccc([125I])c1)CN1CCC(c2ccccc2)CC1 (single isomer, unassigned; (+)) [(+)-[^125 l]12]	vesamicol receptor	No

Please check the record OC(CN1CCC(c2ccccc2)CC1)c1ccc([125I])cc1 (single isomer, unassigned; (-)) [(-)-[^125 l]13] and state if its Heart: Blood Ratio is at or above 4.
No

Could you please find out whether OC(Cc1ccc([125I])cc1)CN1CCC(c2ccccc2)CC1 (single isomer, unassigned; (+)) [(+)-4-[^125 l]HIPP] has Heart: Blood Ratio that meets 4 or exceeds it?
No

Heart: Blood Ratio >= 4 for OC(Cc1ccc([125I])cc1)CN1CCC(c2ccccc2)CC1 (single isomer, unassigned; (-)) [(-)-4-[^125 l]HIPP] ?
Yes

====

# run.description: Blocking experiments: inhibition of radiotracer accumulation in the rat by coadministered compound
# Type: in vivo, rat (male Wistar)
# details: rat, kidney, iv, rat, iv, 60 min, + cold (dl)3-HIPP HCl 0.53 mg/kg; read-out: radioactivity in kidney
measured.attribute: tissue uptake at 1 h (%ID/g)
Number in %ID/g, nothing else.

Fill in tissue uptake at 1 h for record OC(Cc1cccc([125I])c1)CN1CCC(c2ccccc2)CC1 (single isomer, unassigned; (+)) [(+)-[^125 l]12]
0.62
